Record form. Attribute: TGI. Fill in for each entry.
- Tested on: HOP-92 NSCLC
- assay.name: NCI tumour cell line growth inhibition, 384-well format
Numbers only, in µM.

O=C(O)C1(Cc2cccc(Nc3nccs3)n2)CCC(Oc2cccc(Cl)c2F)CC1 (centres undefined) ... 22.9
N[C@@H]1CCCN(c2c(/C=C3\SC(=O)NC3=O)cccc2-c2ccccc2)C1 ... 23.8
c1ccc(Cn2c(-c3ccc(OC[C@H](C4CCNCC4)n4c(-c5ccccc5)nc5ccccc54)cc3)nc3ccccc32)cc1 ... 2.99

Please look up its TGI: Cc1c(NC(=O)OC[C@@H]2COCCN2)cn2ncnc(Nc3ccc4c(cnn4Cc4cccc(F)c4)c3)c12
9.57

* * *

- System: SF-539 CNS
- assay.name: NCI tumour cell line growth inhibition, 384-well format
So basically: TGI at 20 µM or higher? That is YES. Lower than 20 µM? That is NO.

Reference set, count: 4
O=C(O)c1ccc2c(c1)nc(Nc1cccc(Cl)c1)c1ccncc12 ... NO
c1ccc(Cn2c(-c3ccc(OC[C@H](C4CCNCC4)n4c(-c5ccccc5)nc5ccccc54)cc3)nc3ccccc32)cc1 ... NO
CN(C[C@@H]1COCCO1)S(=O)(=O)Nc1ccc2ccc3ncc(-c4cnn(C)c4)cc3c(=O)c2c1 ... NO
COc1ccccc1S(=O)(=O)Nc1ccc2c(c1)CN(C)C(=O)N2 ... NO

Attention now shifts to the item below.
// inclusive: TGI at least 20 µM? input: O=C(O)C1(Cc2cccc(Nc3nccs3)n2)CCC(Oc2cccc(Cl)c2F)CC1 (stereo not given)
YES

* * *

- System: HOP-92 NSCLC
- assay.name: NCI tumour cell line growth inhibition, 384-well format; in the data active means GI50 below about 0.43 µM; inactive means the rest
Entry note: the call must match one of true (active), false (inactive)

Study these solved cases before continuing.
N[C@@H]1CCCN(c2c(/C=C3\SC(=O)NC3=O)cccc2-c2ccccc2)C1 ... false
O=C(O)c1ccc2c(c1)nc(Nc1cccc(Cl)c1)c1ccncc12 ... false
c1ccc(Cn2c(-c3ccc(OC[C@H](C4CCNCC4)n4c(-c5ccccc5)nc5ccccc54)cc3)nc3ccccc32)cc1 ... false
O=C(O)C1(Cc2cccc(Nc3nccs3)n2)CCC(Oc2cccc(Cl)c2F)CC1 (stereo unspecified) ... false
Cc1ccc(S(=O)(=O)Cc2nc(-c3ccc(C(=O)NCc4cccnc4)cc3)oc2C)cc1 ... true

In this assay, the call recorded for Cc1c(NC(=O)OC[C@@H]2COCCN2)cn2ncnc(Nc3ccc4c(cnn4Cc4cccc(F)c4)c3)c12 was what?
false

* * *

- System: SNB-75 CNS
- assay.name: NCI tumour cell line growth inhibition, 384-well format
property.name: TGI (µM)
One number for each entry, in µM.

Completed entries (count: 3):
N[C@@H]1CCCN(c2c(/C=C3\SC(=O)NC3=O)cccc2-c2ccccc2)C1 ... 12.1
O=C(O)c1ccc2c(c1)nc(Nc1cccc(Cl)c1)c1ccncc12 ... 3.85
CN(C[C@@H]1COCCO1)S(=O)(=O)Nc1ccc2ccc3ncc(-c4cnn(C)c4)cc3c(=O)c2c1 ... 21.5

Could you now look at the following compound, please?
I have this compound here, O=C(O)C1(Cc2cccc(Nc3nccs3)n2)CCC(Oc2cccc(Cl)c2F)CC1 (centres undefined) , and I need its recorded TGI.
28.5

* * *

- Test system: MDA-MB-468 breast
- assay.name: NCI tumour cell line growth inhibition, 384-well format; in the data active = GI50 below about 0.43 µM; inactive = the rest
# valid calls are Y (active), N (inactive); nothing else

N[C@@H]1CCCN(c2c(/C=C3\SC(=O)NC3=O)cccc2-c2ccccc2)C1 ... N
O=C(O)c1ccc2c(c1)nc(Nc1cccc(Cl)c1)c1ccncc12 ... N
COc1ccccc1S(=O)(=O)Nc1ccc2c(c1)CN(C)C(=O)N2 ... Y

Read the next record carefully.
Hello, I am checking results. What call was entered for CN(C[C@@H]1COCCO1)S(=O)(=O)Nc1ccc2ccc3ncc(-c4cnn(C)c4)cc3c(=O)c2c1 ?
N
